assay: in vivo; conditions: both, NIH, mouse, in vivo, iv, 10 mg/kg
parameter: AUC(0-t) (ng·h/mL)
Response body: numeric value in ng·h/mL, unit text excluded.

Task: What does the data say about its AUC(0-t)? Entry: `COc1cccc2c1C(=O)c1c(O)c3c(c(O)c1C2=O)C[C@@](O)(C(=O)CO)C[C@@H]3O[C@H]1C[C@H](N)[C@H](O)[C@H](C)O1`
Result: 2920

###

assay: in vivo; settings: both, NIH, mouse, in vivo, iv, 10 mg/kg
parameter: Vd (L)
Response body: numeric value in L, unit text excluded.

Task: What does the data say about its Vd? Entry: COc1cccc2c1C(=O)c1c(O)c3c(c(O)c1C2=O)C[C@@](O)(C(=O)CO)C[C@@H]3O[C@H]1C[C@H](N)[C@H](O)[C@H](C)O1 [Doxorubicin]
Result: 0.00339
